Assay: qHTS assay to test for compound auto fluorescence at 590 nm (red) in HEK293 cells (AID 720679)
Details: red autofluorescence 540/590 nm; series mostly up to 91.3 µM
The source made the active and inactive calls. The call rests on the fitted dose curve; in most records, active means well fitted curve in the direction sought with a large enough effect in the repeat runs; inconclusive means weak or mixed curves; inactive means flat fitted curve, though single readings scatter.
Reported Property: fluorescence, % of fluorescent control

Take a look at these entries with their results.
Molecule: CCCCCC(C)N (stereo unspecified)
Reported Property: fluorescence, % of fluorescent control
Observed Value: inactive
//
Molecule: CN(C)C(=O)Oc1cccc([N+](C)(C)C)c1
Reported Property: fluorescence, % of fluorescent control
Observed Value: inactive
//
Molecule: CC(=O)N1C[C@H](O)C[C@H]1C(=O)O
Reported Property: fluorescence, % of fluorescent control
Observed Value: inactive
//
Molecule: CCCCOCCOC(=O)COc1cc(Cl)c(Cl)cc1Cl
Reported Property: fluorescence, % of fluorescent control
Observed Value: inactive
//
Molecule: COCCOC[C@H](CC1(C(=O)NC2CCC(C(=O)O)CC2)CCCC1)C(=O)Oc1ccc2c(c1)CCC2 (stereo partly specified)
Reported Property: fluorescence, % of fluorescent control
Observed Value: inactive

I'd like to know its fluorescence, % of fluorescent control. The molecule in question is Cc1ccc(-c2ncc(Cl)cc2-c2ccc(S(C)(=O)=O)cc2)cn1 inactive
